Could you please report measured Faecal Egg Count for the items listed next?
Tested on: sheep liver fluke (Fasciola hepatica)
Assay: Flukicidal activity in sheep infected with sheep liver fluke: faecal egg count and post mortem adult fluke count after single dose (Table II)
Assay type: in vivo
Details: sheep; 12.5 mg/kg oral; day 14
Protocol: Compositions suitable for use as experimental aqueous oral drenches were prepared in the following general manner. […] Compositions prepared by the methods of Examples 21 and 22 were used as a single dose to test sheep infected with sheep liver fluke (Fasciola hepatica). The number of liver fluke eggs in the faeces was measured at the time of treatment and at selected intervals up to 14 days after treatment. The sheep were killed on day 14 and the number of adult fluke in the liver counted. […]
The response must be a number in Eggs per g faeces with no trailing unit.

Check the records and state Faecal Egg Count for Oc1c(Br)cc(Cl)cc1Cc1cc(F)cc(Cc2cc(Cl)cc(Br)c2O)c1O
0

Quickly give me recorded Faecal Egg Count for CC(c1cc(Cl)cc(Cl)c1O)c1cc(F)cc(Cc2cc(Cl)cc(Br)c2O)c1O (centres unmarked)
0

Dear colleague, please send me the reported Faecal Egg Count for Oc1c(Cl)cc(F)cc1Cc1cc(Cl)cc(Cc2cc(F)cc(Cl)c2O)c1O when you can.
20

State its Faecal Egg Count: Oc1c(I)cc(F)cc1Cc1cc(Cl)cc(Cc2cc(F)cc(I)c2O)c1O
0

Consider the molecule CC(c1cc(Cl)cc(Cl)c1O)c1cc(F)cc(Cc2cc(F)cc(Br)c2O)c1O (centres unmarked) . State its measured Faecal Egg Count.
0

Fill in Faecal Egg Count for record Oc1c(Br)cc(Br)cc1Cc1cc(F)cc(Cc2cc(Br)cc(Br)c2O)c1O
0

Return Faecal Egg Count (reported value) for this molecule: Oc1c(Br)cc(Cl)cc1Cc1cc(Cl)cc(Cc2cc(Cl)cc(Br)c2O)c1O
0

Name the recorded Faecal Egg Count of the item Oc1c(I)cc(Cl)cc1Cc1cc(F)cc(Cc2cc(Cl)cc(I)c2O)c1O in your answer.
0

Note down Faecal Egg Count recorded for Oc1c(Br)cc(F)cc1Cc1cc(F)cc(Cc2cc(F)cc(Br)c2O)c1O
0

Provide Faecal Egg Count value for the following molecule: CC(=O)Oc1c(Cc2cc(Cl)cc(Br)c2O)cc(F)cc1Cc1cc(Cl)cc(Br)c1O
10

Look up and state reported Faecal Egg Count for Oc1c(Br)cc(Br)cc1Cc1cc(Cl)cc(Cc2cc(Br)cc(Br)c2O)c1O
40

Quick one: give measured Faecal Egg Count for Oc1c(Br)cc(F)cc1Cc1cc(Br)cc(Cc2cc(F)cc(Br)c2O)c1O
0

Give Faecal Egg Count for the following molecule: Oc1c(Cl)cc(Cl)cc1Cc1cc(F)cc(Cc2cc(Cl)cc(Cl)c2O)c1O
0

Give the reported Faecal Egg Count for this molecule. CC(c1cc(F)cc(Br)c1O)c1cc(Cl)cc(C(C)c2cc(F)cc(Br)c2O)c1O (centres unmarked)
0

These data points were gathered from patent US4163801A.
